# System: K. pneumoniae NVT1001 strains with carbapenemase plasmids
# assay name: Etest MIC of β-lactams, OmpK35/36 loss, ΔramR and/or carbapenemase (Table 9)
# Type: cell-based, Klebsiella pneumoniae
# run parameters: Klebsiella pneumoniae, OXA-48 on pACYC177; ΔramRΔ36 (ΔramRΔompK36 mutant)

- compound: "CC(=O)OCC1=C(C(=O)O)N2C(=O)[C@@H](NC(=O)Cc3cccs3)[C@H]2SC1"
  sign: ">"
  MIC [µg/mL]: 256
- compound: "CO/N=C(\\C(=O)N[C@@H]1C(=O)N2C(C(=O)O)=C(COC(C)=O)CS[C@H]12)c1csc(N)n1"
  sign: "="
  MIC [µg/mL]: 32
- compound: "C[C@H]1[C@H](NC(=O)/C(=N\\OC(C)(C)C(=O)O)c2csc(N)n2)C(=O)N1S(=O)(=O)O"
  sign: "="
  MIC [µg/mL]: 0.5
- compound: "CO[C@@]1(NC(=O)Cc2cccs2)C(=O)N2C(C(=O)O)=C(COC(N)=O)CS[C@@H]21"
  sign: ">"
  MIC [µg/mL]: 256
- compound: "CO/N=C(\\C(=O)N[C@@H]1C(=O)N2C(C(=O)[O-])=C(C[N+]3(C)CCCC3)CS[C@H]12)c1csc(N)n1 [Cefepime]"
  sign: "="
  MIC [µg/mL]: 8
- compound: "C[C@@H](O)[C@H]1C(=O)N2C(C(=O)O)=C(SCCN=CN)C[C@H]12"
  sign: ">"
  MIC [µg/mL]: 32
- compound: "CCO/N=C(\\C(=O)N[C@@H]1C(=O)N2C(C(=O)[O-])=C(Sc3nc(-c4cc[n+](C)cc4)cs3)CS[C@H]12)c1nsc(N)n1"
  sign: "="
  MIC [µg/mL]: 8
- compound: "CC(C)(O/N=C(\\C(=O)N[C@@H]1C(=O)N2C(C(=O)[O-])=C(C[n+]3ccccc3)CS[C@H]12)c1csc(N)n1)C(=O)O"
  sign: "="
  MIC [µg/mL]: 2
- compound: "C[C@@H](O)[C@H]1C(=O)N2C(C(=O)O)=C(S[C@@H]3CN[C@H](C(=O)N(C)C)C3)[C@H](C)[C@H]12"
  sign: ">"
  MIC [µg/mL]: 32

====

Item-by-item account of MIC
# System: K. pneumoniae NVT1001 and its ΔompK35/36 and/or ΔramR mutants
# assay name: Etest MIC, OmpK35/36 loss and AcrAB-TolC overexpression (ΔramR) strains (Table 6)
# Assay type: cell-based, Klebsiella pneumoniae
# run parameters: Klebsiella pneumoniae, Δ35/36, ΔompK35/36 mutant
# Description: The MICs of antibiotics were determined using the Etest (Biodisk AB, Sweden) according to the manufacturer's instructions. The MICs from the Etest, which fall between standard two-fold dilutions, were rounded up to the next highest two-fold value. […]

- compound: "CO/N=C(\\C(=O)N[C@@H]1C(=O)N2C(C(=O)O)=C(COC(N)=O)CS[C@H]12)c1ccco1 [Cefuroxime]"
  readout units: "µg/mL"
  MIC: 32
- compound: "CN(C)c1cc(NC(=O)CNC(C)(C)C)c(O)c2c1C[C@H]1C[C@H]3[C@H](N(C)C)C(O)=C(C(N)=O)C(=O)[C@@]3(O)C(O)=C1C2=O [Tigecycline, tigecycline]"
  readout units: "µg/mL"
  MIC: 1
- compound: "CCO/N=C(\\C(=O)N[C@@H]1C(=O)N2C(C(=O)[O-])=C(Sc3nc(-c4cc[n+](C)cc4)cs3)CS[C@H]12)c1nsc(N)n1 [Ceftaroline]"
  readout units: "µg/mL"
  MIC: 1
- compound: "[H]/N=C(/N)N[C@H]1[C@H](O)[C@@H](O)[C@H](O[C@@H]2O[C@@H](C)[C@](O)(C=O)[C@H]2O[C@@H]2O[C@@H](CO)[C@H](O)[C@@H](O)[C@@H]2NC)[C@@H](N/C(N)=N\\[H])[C@@H]1O [Streptomycin]"
  readout units: "µg/mL"
  MIC: 4
- compound: "C[C@H]1c2cccc(O)c2C(=O)C2=C(O)[C@]3(O)C(=O)C(C(N)=O)=C(O)[C@@H](N(C)C)[C@@H]3[C@@H](O)[C@@H]21 [Doxycycline, doxycycline]"
  readout units: "µg/mL"
  MIC: 4
- compound: "CC(=O)OCC1=C(C(=O)O)N2C(=O)[C@@H](NC(=O)Cc3cccs3)[C@H]2SC1 [Cephalothin]"
  readout units: "µg/mL"
  MIC: 256

====

# System: K. pneumoniae NVT1001 strains with aminoglycoside resistance plasmids
# assay name: Etest MIC of aminoglycosides, aminoglycoside-modifying enzyme or 16S rRNA methylase (Table 13)
# Format: cell-based, Klebsiella pneumoniae
# run parameters: NVT1001 with ArmA on pACYC184
Item-by-item account of MIC
measured parameter: MIC

- query smiles: "NCC[C@H](O)C(=O)N[C@@H]1C[C@H](N)[C@@H](O[C@H]2O[C@H](CN)[C@@H](O)[C@H](O)[C@H]2O)[C@H](O)[C@H]1O[C@H]1O[C@H](CO)[C@@H](O)[C@H](N)[C@H]1O"
  result: ">256 µg/mL"
- query smiles: "CCN[C@@H]1C[C@H](N)[C@@H](O[C@H]2OC(CN)=CC[C@H]2N)[C@H](O)[C@H]1O[C@H]1OC[C@](C)(O)[C@H](NC)[C@H]1O"
  result: ">256 µg/mL"
- query smiles: "CN[C@@H]1[C@H](O)[C@H](NC)[C@H]2O[C@@]3(O)C(=O)C[C@@H](C)O[C@H]3O[C@@H]2[C@H]1O"
  result: "16 µg/mL"
- query smiles: "CN[C@@H]1[C@H](O[C@H]2[C@H](O[C@H]3[C@H](O)[C@@H](O)[C@H](N=C(N)N)[C@@H](O)[C@@H]3N=C(N)N)O[C@@H](C)[C@]2(O)C=O)O[C@@H](CO)[C@H](O)[C@H]1O"
  result: "2 µg/mL"
- query smiles: "NC[C@H]1O[C@H](O[C@H]2[C@H](O)[C@@H](O[C@H]3O[C@H](CO)[C@@H](O)[C@H](N)[C@H]3O)[C@H](N)C[C@@H]2N)[C@H](N)C[C@@H]1O"
  result: ">256 µg/mL"
- query smiles: "NC[C@@H]1O[C@@H](O[C@H]2[C@H](O)[C@@H](O[C@H]3O[C@H](CO)[C@@H](O)[C@H](N)[C@H]3O)[C@H](N)C[C@@H]2N)[C@@H](O)[C@H](O)[C@H]1O"
  result: ">256 µg/mL"

====

# Test system: K. pneumoniae NVT1001 strains with carbapenemase plasmids
# assay name: Etest MIC of β-lactams, OmpK35/36 loss, ΔramR and/or carbapenemase (Table 9)
# Assay type: cell-based, Klebsiella pneumoniae
# run parameters: Klebsiella pneumoniae, KPC-3 on pACYC177; ΔramRΔ36 (ΔramRΔompK36 mutant)

- compound: "CO/N=C(\\C(=O)N[C@@H]1C(=O)N2C(C(=O)[O-])=C(C[N+]3(C)CCCC3)CS[C@H]12)c1csc(N)n1 [Cefepime]"
  system tested: "K. pneumoniae NVT1001 strains with carbapenemase plasmids"
  MIC: "> 256 µg/mL"
- compound: "CC(C)(O/N=C(\\C(=O)N[C@@H]1C(=O)N2C(C(=O)[O-])=C(C[n+]3ccccc3)CS[C@H]12)c1csc(N)n1)C(=O)O"
  system tested: "K. pneumoniae NVT1001 strains with carbapenemase plasmids"
  MIC: "> 256 µg/mL"
- compound: "C[C@@H](O)[C@H]1C(=O)N2C(C(=O)O)=C(S[C@@H]3CN[C@H](C(=O)N(C)C)C3)[C@H](C)[C@H]12"
  system tested: "K. pneumoniae NVT1001 strains with carbapenemase plasmids"
  MIC: "> 32 µg/mL"
- compound: "CCO/N=C(\\C(=O)N[C@@H]1C(=O)N2C(C(=O)[O-])=C(Sc3nc(-c4cc[n+](C)cc4)cs3)CS[C@H]12)c1nsc(N)n1"
  system tested: "K. pneumoniae NVT1001 strains with carbapenemase plasmids"
  MIC: "> 256 µg/mL"
- compound: "CO/N=C(\\C(=O)N[C@@H]1C(=O)N2C(C(=O)O)=C(COC(N)=O)CS[C@H]12)c1ccco1"
  system tested: "K. pneumoniae NVT1001 strains with carbapenemase plasmids"
  MIC: "> 256 µg/mL"
- compound: "C[C@@H](O)[C@H]1C(=O)N2C(C(=O)O)=C(S[C@@H]3CN[C@H](C(=O)Nc4cccc(C(=O)O)c4)C3)[C@H](C)[C@H]12"
  system tested: "K. pneumoniae NVT1001 strains with carbapenemase plasmids"
  MIC: "> 32 µg/mL"

====

Item-by-item account of MIC
# Test system: K. pneumoniae NVT1001 strains with ESBL or AmpC β-lactamase plasmids
# assay name: Etest MIC of β-lactams, OmpK35/36 loss, ΔramR and/or extended-spectrum β-lactamase and AmpC β-lactamase (Table 8)
# Format: cell-based, Klebsiella pneumoniae
# run parameters: Klebsiella pneumoniae, DHA-1-AmpR on pACYC177; ΔramRΔ35/36 (ΔramRΔompK35/36 mutant)

- query smiles: "C[C@H]1[C@H](NC(=O)/C(=N\\OC(C)(C)C(=O)O)c2csc(N)n2)C(=O)N1S(=O)(=O)O"
  readout units: "µg/mL"
  sign: "="
  MIC: 8
- query smiles: "CO[C@@]1(NC(=O)Cc2cccs2)C(=O)N2C(C(=O)O)=C(COC(N)=O)CS[C@@H]21"
  readout units: "µg/mL"
  sign: ">"
  MIC: 256
- query smiles: "C[C@@H](O)[C@H]1C(=O)N2C(C(=O)O)=C(S[C@@H]3CN[C@H](C(=O)Nc4cccc(C(=O)O)c4)C3)[C@H](C)[C@H]12"
  readout units: "µg/mL"
  sign: ">"
  MIC: 32
- query smiles: "CCO/N=C(\\C(=O)N[C@@H]1C(=O)N2C(C(=O)[O-])=C(Sc3nc(-c4cc[n+](C)cc4)cs3)CS[C@H]12)c1nsc(N)n1"
  readout units: "µg/mL"
  sign: "="
  MIC: 16
